Recorded values, source patent US20250263490A1.

- Test system: T1, recombinant mouse domain 1-3His6 of CI-M6PR (mouse, UniProt Q07113 36-418)
- T1 construct: Genbank NM_010515.2); Range includes the signal peptide; also called mDom1-3His6; mCI-M6PRD1-D3
- T1 sequence (Q07113 other isoform, or with tags, fused parts or gaps): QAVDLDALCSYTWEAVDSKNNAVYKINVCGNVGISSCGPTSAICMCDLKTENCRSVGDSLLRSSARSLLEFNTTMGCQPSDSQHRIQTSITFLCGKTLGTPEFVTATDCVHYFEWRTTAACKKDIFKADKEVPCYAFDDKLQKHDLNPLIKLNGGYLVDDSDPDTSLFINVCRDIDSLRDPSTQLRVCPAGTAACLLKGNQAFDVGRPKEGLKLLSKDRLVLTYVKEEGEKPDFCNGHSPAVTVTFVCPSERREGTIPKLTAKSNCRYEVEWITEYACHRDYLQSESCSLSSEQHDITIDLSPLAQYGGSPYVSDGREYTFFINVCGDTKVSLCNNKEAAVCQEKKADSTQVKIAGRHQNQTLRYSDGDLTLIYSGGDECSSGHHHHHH
- Assay explanation: ELISA: coated mouse CI-M6PR Domain 1-3His6, serially diluted VHH, anti-VHH-HRP, TMB, Abs 450 nm; sigmoidal regression [table at the right]
pEC50: −log10 of the molar value.
Recorded pEC50 values for a group of binders are listed next.
Readout: pEC50

>>> value("anti-CI-M6PR VHH4 (VHH, His6-tagged; made in Pichia pastoris) VHH: QVQLQESGGGLVQAGGSLRLSCAASGRTFSNYVMGWFRQAPGKEREFVGSISQGGKMTYYPDSVKGRFTISRDNAKNTMYLQMDGLKPEDTAVYYCAVSRGYPMVRVSEVDYWGQGTQVTVSS")
6.06
>>> value("anti-CI-M6PR VHH1 (VHH, His6-tagged; made in Pichia pastoris, later also in E. coli WK6) VHH: QVQLQESGGGLVQPGGSLRLSCVASGFTFDRYWMNWLRQIPGKEIEWVSTINTGGTGTYYDDSVKGRFSISRDDAKNTLYLTMNSLKTEDTAVYYCARGATYYRGNSAIRGQGTQVTVSS")
6.45
>>> value("anti-CI-M6PR VHH11 (VHH, His6-tagged; made in Pichia pastoris) VHH: QVQLQESGGGLVQAGDSLKLSCTASGPTFSEITGGWFRQVPGKEREFVASISSTGITTYYTDSVKGRFTVSRDNAKNTMYLQMNSLKPEDTGVYYCAARSTSRSIAITVGYDYWGQGTQVTVSS")
6.48
>>> value("anti-CI-M6PR VHH9 (VHH, His6-tagged; made in Pichia pastoris) VHH: QVQLQESGGGLVQAGGSLRLSCAASGTILSIKTMGWYRQAPGKEREWVATITSSSIPMYADSVKGRFTISRDDAKNTVYLQMNSLKPEDTGVYYCNAPWTDYWGQGTQVTVSS")
5.56
>>> value("anti-CI-M6PR VHH10 (VHH, His6-tagged; made in Pichia pastoris) VHH: QVQLQESGGGSVQAGGSLRLSCAPAGRTFSRIRMGWFRQAPGKEREFVAAISSGGLSYYADSMKGRFTISRDNAKNTVLLQMNSLEPDDTAVYYCAAVLNDYIDDYVARNPTLYDYWGQGTQVTVSS")
5.79
>>> value("anti-CI-M6PR VHH2 (VHH, His6-tagged; made in Pichia pastoris) VHH: QVQLQESGGGLVQPGGSLRLSCVFSGRTFMSYDVGWFRQAPGKERELLSSITSSSSSPYYAESVKGRFAVSRDGAKKTVYLRMNSLEPEDTAVYYCAARENWRNDWQYWGQTQVTVSS")
6.98
>>> value("anti-CI-M6PR VHH6 (VHH, His6-tagged; made in E. coli) VHH: QVQLQESGGGLVQAGGSLRLSCAVSGSISSIGGMGWFRQAPGKQREFVAVILNNSGMTSYADSVKGRFTISRGNSKNTMYLQMNSLKPEDTAVYYCNYSGYWGQGTQVTVSS")
5.01
>>> value("anti-CI-M6PR VHH8 (VHH, His6-tagged (Pichia pastoris)) VHH: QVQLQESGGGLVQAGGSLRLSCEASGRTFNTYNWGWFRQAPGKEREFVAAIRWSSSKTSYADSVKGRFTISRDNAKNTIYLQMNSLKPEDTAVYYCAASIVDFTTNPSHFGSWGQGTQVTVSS")
6.23
>>> value("anti-CI-M6PR VHH3 (VHH, His6-tagged; made in Pichia pastoris) VHH: QVQLQESGGGLVQPGGSLRLSCAAFGLNFKNFDMIWFRQAPGEERDIVAAISSSSSTIWYEDSVKGRFTISRDNAKNTVYLQMNSLKPEDTAVYYCAAALTSWRRPDYWGQGTQVTVSS")
6.17
>>> value("anti-CI-M6PR VHH5 (VHH, His6-tagged; made in Pichia pastoris, later also in E. coli WK6) VHH: QVQLQESGGGLVQAGGSLKLSCAAAGRTFSRLAMGWFRQAPGKEREFVAAISENGDSIHYSDSVKGRFAVSRDNAKNTVYLQMNSLKPEDTAIYYCAADRAAYYCSGSGCYPSRAPAAASYDYWGQGTQVTVSS")
6.25
